src = patent US12448388B2

System: HCT116 MTAP-deleted cell lines
Test: Cell viability assay (CellTiter-Glo, 7 days), HCT116 MTAP-deleted
Type: cell-based
Conditions: Homo sapiens, HCT-116; cell viability, HCT116 MTAP-deleted; class symbols; read-out: CC50
The following compounds are shown together with reported CC50 values.

Compound | CC50
CN(C(=O)c1ccc2nc(N)c3cncn3c2c1)[C@@H]1COc2c1ccc(C(F)(F)F)c2F | < 0.1 µM
C[C@@H]1CN(C(=O)c2cc3c(cn2)nc(N)c2cncn23)[C@H]2c3cc(F)c(OC(F)(F)F)cc3C[C@H]2O1 (single isomer, unassigned) | < 0.1 µM
Nc1nc2cc(F)c(C(=O)N3CCO[C@@H]4Cc5nc(C(F)(F)F)ccc5[C@@H]43)cc2n2cncc12 (racemic) | 0.1 to 1 µM
C[C@@H]1CN(C(=O)c2cc3c(cc2F)nc(N)c2cncn23)[C@H]2c3ccc(OC(F)(F)F)cc3C[C@H]2O1 (single isomer, unassigned) | < 0.1 µM
Cc1ncc2c(N)nc3cnc(C(=O)N4CCC[C@@H]5Oc6c(ccc(C(F)(F)F)c6F)[C@@H]54)cc3n12 | < 0.1 µM
Cc1ncc2c(N)nc3cc(Cl)c(C(=O)N4CCC[C@@H]5Oc6nc(C(F)(F)F)ccc6[C@@H]54)cc3n12 (racemic) | < 0.1 µM

----------
Test system: HCT116 MTAP-deleted cell lines
Assay: Cell viability assay (CellTiter-Glo, 7 days), HCT116 MTAP-deleted
Assay type: cell-based
Conditions: Homo sapiens, HCT-116; cell viability, HCT116 MTAP-deleted; class symbols; read-out: CC50

Compound | Subject Of Test | CC50
C[C@@H]1C[C@@H]2Oc3c(ccc(C(F)(F)F)c3F)[C@@H]2N(C(=O)c2cc3c(cn2)nc(N)c2cncn23)C1 | HCT116 MTAP-deleted cell lines | < 100 nM
C[C@H]1CN(C(=O)c2cc3c(cc2F)nc(N)c2cncn23)[C@@H]2c3ccc(C(F)(F)F)cc3C[C@@H]2O1 (single isomer, unassigned) | HCT116 MTAP-deleted cell lines | < 100 nM
Cc1ncn2c1c(N)nc1ccc(C(=O)N(Cc3ccc(C(F)(F)F)cc3F)N(C)C(=O)C3CC3)cc12 | HCT116 MTAP-deleted cell lines | < 100 nM
Nc1nc2cc(F)c(C(=O)N(Cc3ccc(C(F)(F)F)cc3F)c3cnn(C4CC4)c3)cc2n2cncc12 | HCT116 MTAP-deleted cell lines | < 100 nM

----------
Tested on: HCT116 MTAP-deleted cell lines
Assay: Cell viability assay (CellTiter-Glo, 7 days), HCT116 MTAP-deleted
Assay type: cell-based
Conditions: Homo sapiens, HCT-116; cell viability, HCT116 MTAP-deleted; class symbols; read-out: CC50
Description: Control compounds were analyzed in parallel each time for quality control. In Brief, on Day -1, a serial dilution of stock compounds in DMSO was performed using BioMek liquid handlers and dispensed using Echo acoustic dispenser into 384 well plates. […] Compound plates were stored as frozen until the cells were ready for seeding. […] On Day 7, the viability of cells was measured using a CTG assay kit (CellTitre-Glo;Promega cat no. G7573). […]
Measurement Type: CC50

Compound | Measured
C[C@@H]1CN(C(=O)c2cc3c(cc2F)nc(N)c2cncn23)[C@H]2c3cc(F)c(OC(F)(F)F)cc3C[C@H]2O1 (single isomer, unassigned) [Ff-197] | < 100 nM
C[C@H]1OC[C@@H](N(C)C(=O)c2cc3c(cc2Cl)nc(N)c2cncn23)c2ccc(C(F)(F)F)cc21 (racemic) [Ff-284] | < 100 nM
Nc1nc2cc(F)c(C(=O)N3CCO[C@@H]4Cc5cc(C(F)(F)F)ccc5[C@@H]43)cc2n2cncc12 (single isomer, unassigned) [Ff-82] | < 100 nM

----------
Below: a set of entries, each annotated with reported Vd.
Assay: PK data (IV/PO) in cynomolgus monkey
Conditions: in vivo, IV 0.25 mg/Kg, read-out: Vss
Measurement Type: Vd (L/kg)

Molecule | Measure Unit | Measured
Nc1nc2cnc(C(=O)N3CCC[C@@H]4Oc5cc(C(F)(F)F)cc(F)c5[C@@H]43)cc2n2cncc12 (single isomer, unassigned) [Fg-53] | L/kg | 2.53
Nc1nc2cnc(C(=O)N3CCC[C@@H]4Oc5cc(OC(F)(F)F)cc(F)c5[C@@H]43)cc2n2cncc12 (single isomer, unassigned) [Fg-55] | L/kg | 2
Nc1nc2cc(F)c(C(=O)N3CCC[C@@H]4Oc5cc(C(F)(F)F)ccc5[C@@H]43)cc2n2cncc12 [Ff-104] | L/kg | 1.47
Nc1nc2cnc(C(=O)N3CCC[C@@H]4Oc5cc(OC(F)(F)F)ccc5[C@@H]43)cc2n2cncc12 [Ff-341] | L/kg | 2.15

----------
# maps each entry to its CC50
Tested on: HCT116 MTAP-deleted cell lines
Assay: Cell viability assay (CellTiter-Glo, 7 days), HCT116 MTAP-deleted
Format: cell-based
Conditions: Homo sapiens, HCT-116; cell viability, HCT116 MTAP-deleted; class symbols; read-out: CC50
Method: Control compounds were analyzed in parallel each time for quality control. In Brief, on Day -1, a serial dilution of stock compounds in DMSO was performed using BioMek liquid handlers and dispensed using Echo acoustic dispenser into 384 well plates. […] Compound plates were stored as frozen until the cells were ready for seeding. […] On Day 7, the viability of cells was measured using a CTG assay kit (CellTitre-Glo;Promega cat no. G7573). […]

Molecule | CC50
CC(C)N(Cc1ccc(Oc2ccccc2)cc1)C(=O)c1ccc2nc(N)c3cncn3c2c1 | 100 to 1000 nM
C[C@@H]1CN(C(=O)c2cc3c(cn2)nc(N)c2cncn23)[C@H]2c3ccc(C(F)(F)F)cc3C[C@H]2O1 | < 100 nM
CC(=O)N(C)N(Cc1ccc(-c2cnn(C(F)(F)F)c2)cc1F)C(=O)c1ccc2nc(N)c3c(C)ncn3c2c1 | < 100 nM
Nc1nc2cc(F)c(C(=O)N3[C@@H](c4ccc(C(F)(F)F)cn4)CC[C@@H]4C[C@@H]43)cc2n2cncc12 (racemic) | 100 to 1000 nM
C[C@H]1CN(C(=O)c2cc3c(cn2)nc(N)c2cncn23)[C@H]2c3cc(F)c(C(F)(F)F)cc3C[C@H]2O1 | < 100 nM
C[C@@H]1CN(C(=O)c2cc3c(cc2F)nc(N)c2cncn23)[C@@H](c2ccc(C(F)(F)F)cn2)CO1 | < 100 nM
Nc1nc2cc(F)c(C(=O)N3CCC[C@@H]4OCc5nc(C(F)(F)F)ccc5[C@@H]43)cc2n2cncc12 | < 100 nM
C[C@@H]1CC[C@@H]2Oc3cc(C(F)(F)F)ccc3[C@@H]2N1C(=O)c1cc2c(cn1)nc(N)c1cncn12 (racemic) | < 100 nM
C[C@H]1CN(C(=O)c2cc3c(cc2F)nc(N)c2cncn23)[C@H]2c3ccc(Br)c(F)c3C[C@H]2O1 (single isomer, unassigned) | < 100 nM
Nc1nc2cc(F)c(C(=O)N3CCO[C@@H]4Cc5cc(Br)ccc5[C@@H]43)cc2n2cncc12 (single isomer, unassigned) [Ff-76] | < 100 nM
Nc1nc2cc(F)c(C(=O)N(Cc3ccc(-c4cnn(C(F)(F)F)c4)cc3F)C34CC(C3)C4)cc2n2cncc12 | < 100 nM
C[C@H]1CN(C(=O)c2cc3c(cn2)nc(N)c2cncn23)[C@H]2c3ccc(OC(F)(F)F)c(F)c3C[C@H]2O1 (single isomer, unassigned) | 100 to 1000 nM
Nc1nc2cc(F)c(C(=O)N3CC(F)(F)CC[C@H]3c3ccc(C(F)(F)F)cn3)cc2n2cncc12 (single isomer, unassigned) | 100 to 1000 nM

----------
Test system: HCT116 MTAP-deleted cell lines
Assay: Cell viability assay (CellTiter-Glo, 7 days), HCT116 MTAP-deleted
Format: cell-based
Details: Homo sapiens, HCT-116; cell viability, HCT116 MTAP-deleted; class symbols; read-out: CC50
Measured CC50 values are reported for all entries that follow.

Molecule | CC50
Nc1nc2ccc(C(=O)N(Cc3ccc(C(F)(F)F)cn3)N3CCCC3=O)cc2n2cncc12 | 100 to 1000 nM
Cc1ncc2c(N)nc3ccc(C(=O)N(C)[C@@H]4COc5cc(C#CC6(C)COC6)ccc54)cc3n12 | < 100 nM
Nc1nc2cc(F)c(C(=O)N3CCN(C4COC4)CC3c3ccc(C(F)(F)F)cn3)cc2n2cncc12 (stereo not shown) | 100 to 1000 nM
Nc1nc2cc(F)c(C(=O)N3C[C@H](F)CC4Oc5cc(C(F)(F)F)ccc5[C@@H]43)cc2n2cncc12 (mixture of isomers) | < 100 nM
Cc1ncc2c(N)nc3cnc(C(=O)N4CCC[C@@H]5Oc6cc(C(F)(F)F)c(F)cc6[C@@H]54)cc3n12 | < 100 nM
Nc1nc2cc(F)c(C(=O)N3CCC[C@@H]4Oc5cc(C(F)(F)F)c(F)cc5[C@@H]43)cc2n2cncc12 | < 100 nM
CCN(C(=O)c1cc2c(cc1F)nc(N)c1cncn12)[C@@H]1COc2cc(C(F)(F)F)ccc21 | < 100 nM
